- subject-of-test: recombinant human ACC1 (rhACC1) (Homo sapiens, UniProt Q13085, DEL44-44)
- Construct: infected with recombinant baculovirus containing full length human ACC1 cDNA; made in house; host or cells: SF9 insect cells (baculovirus)
- assay: recombinant hACC1 Transcreener assay (ADP detection FP)
- Assay type: biochemical
- measurement-setup: recombinant hACC1 Transcreener assay, 50 μM ATP, minimum of n=3; read-out: hACC1
Each record here notes measured pIC50.
Give only the number. pIC50 is defined as minus log10 of concentration in molar units.

Please review the following examples before continuing.
CNc1nc(-c2ccc(C(=O)O)cc2)ccc1C(=O)N1CCC2(CC1)CC(=O)c1c(cnn1C(C)C)C2 [Example 8] | 6.81
CNc1nc(-c2cccc(C(=O)O)c2)ccc1C(=O)N1CCC2(CC1)CC(=O)c1c(cnn1C(C)(C)C)C2 [Example 4] | 6.94
CNc1ncc(-c2cccc(C(=O)O)c2)cc1C(=O)N1CCC2(CC1)CC(=O)c1c(cnn1C(C)C)C2 [Example 43] | 7.01

# evaluate next
Request the reported pIC50 associated with CC(C)n1ncc2c1C(=O)CC1(CCN(C(=O)c3ccc(-c4cccc(C(=O)O)c4)cc3)CC1)C2 [Example 7] 6.95
